- Tested on: Ps. aeruginosa 52A104
- ASSAY_TEXT: In vitro MIC, Ps. aeruginosa 52A104
- Format: cell-based
- CONDITION: Table III
- Source text: The in vitro activity of the herein described compounds renders them useful for topical application in the form of ointments, creams and the like, or for sterilization purposes, e.g., sick-room utensils. Table I compares the in vitro profile of 6-[D-2-phenyl-2-(amidinopropionamido)acetamido]penicillanic acid (PAP) with ampicillin (AMP) and carbenicillin (CAR).
ASSAY_METRIC: MIC (µg/mL)
I only need the number, in µg/mL, no unit after it.

Summary for this compound, CC1(C)S[C@@H]2[C@H](NC(=O)C(NC(=O)CNC(=N)c3ccc(Cl)cc3)c3ccccc3)C(=O)N2[C@H]1C(=O)O (stereo partly shown) : MIC is 25

Summary for this compound, CC1(C)S[C@@H]2[C@H](NC(=O)C(NC(=O)CNC(=N)c3ccc(Br)cc3)c3ccccc3)C(=O)N2[C@H]1C(=O)O (stereo partly shown) : MIC is 25

Summary for this compound, CC1(C)S[C@@H]2[C@H](NC(=O)C(NC(=O)CNC(=N)c3ccc(F)cc3)c3ccccc3)C(=O)N2[C@H]1C(=O)O (stereo partly shown) : MIC is 12.5

Summary for this compound, CC1(C)S[C@@H]2[C@H](NC(=O)C(NC(=O)CNC(=N)c3ccccc3)c3ccccc3)C(=O)N2[C@H]1C(=O)O (stereo partly shown) : MIC is 25

----------
- System: A. aerogenes
- ASSAY_TEXT: In vitro MIC, A. aerogenes (strain not given)
- Assay type: cell-based
- CONDITION: Table III
ASSAY_METRIC: MIC (µg/mL)
I only need the number, in µg/mL, no unit after it.

Summary for this compound, CC1(C)S[C@@H]2[C@H](NC(=O)C(NC(=O)CNC(=N)c3ccc(Cl)cc3)c3ccccc3)C(=O)N2[C@H]1C(=O)O (stereo partly shown) : MIC is 3.12

Summary for this compound, CC1(C)S[C@@H]2[C@H](NC(=O)C(NC(=O)CNC(=N)c3ccc(F)cc3)c3ccccc3)C(=O)N2[C@H]1C(=O)O (stereo partly shown) : MIC is 25

Summary for this compound, CC1(C)S[C@@H]2[C@H](NC(=O)C(NC(=O)CNC(=N)c3ccc(Br)cc3)c3ccccc3)C(=O)N2[C@H]1C(=O)O (stereo partly shown) : MIC is 3.12

Summary for this compound, CC1(C)S[C@@H]2[C@H](NC(=O)C(NC(=O)CNC(=N)c3ccccc3)c3ccccc3)C(=O)N2[C@H]1C(=O)O (stereo partly shown) : MIC is 25

----------
- System: E. coli 51A266
- ASSAY_TEXT: In vivo protection of mice against experimental E. coli 51A266 infection
- CONDITION: Table IV; PO, 200 mg./kg.; doses 0.5, 4 and 24 hours
ASSAY_METRIC: % Survivors (%)
I only need the number, in %, no unit after it.

Summary for this compound, CC1(C)S[C@@H]2[C@H](NC(=O)C(NC(=O)CNC(=N)c3ccc(F)cc3)c3ccccc3)C(=O)N2[C@H]1C(=O)O (stereo partly shown) [X = F] : % Survivors is 10

Summary for this compound, CC1(C)S[C@@H]2[C@H](NC(=O)C(NC(=O)CNC(=N)c3ccccc3)c3ccccc3)C(=O)N2[C@H]1C(=O)O (stereo partly shown) [X = H] : % Survivors is 10

Summary for this compound, CC1(C)S[C@@H]2[C@H](NC(=O)C(NC(=O)CNC(=N)c3ccc(Cl)cc3)c3ccccc3)C(=O)N2[C@H]1C(=O)O (stereo partly shown) [X = Cl] : % Survivors is 0

Summary for this compound, CC1(C)S[C@@H]2[C@H](NC(=O)C(NC(=O)CNC(=N)c3ccc(Br)cc3)c3ccccc3)C(=O)N2[C@H]1C(=O)O (stereo partly shown) [X = Br] : % Survivors is 0
